# method_description: Cytotoxicity, LDH assay, Caco-2 cells
# Assay type: cell-based, human
# condition_set: human, Caco-2; 40 μg/mL, 24 h, mean ± SD of three; read-out: Cell viability Caco-2
reported_metric: viability at 24 h, 40 μg/mL (%)
# value in %; strip the unit string

Return reported viability at 24 h, 40 μg/mL; argument: CC(=O)OC1CC2(C)C(C(OC(C)=O)CC3(C)C2C(O)C=C2C4C(C)C(C)(O)CC(OC(C)=O)C4(C)CCC23C)C(C)(C)C1O (centres unmarked)
65.8

Ok, now CCC(C)C(=O)OC1C=C2C3C(C)C(C)(O)CC(OC(C)=O)C3(C)CCC2(C)C2(C)CC(OC(C)=O)C3C(C)(C)C(O)C(OC(C)=O)CC3(C)C12 (centres unmarked)
51.1

====

Items are presented alongside their recorded viability at 24 h, 100 μg/mL.
# method_description: Cytotoxicity, LDH assay, PNT-2 cells
# Type: cell-based, human
# condition_set: human, PNT-2 normal prostate epithelium cells, 100 μg/mL, 24 h, mean ± SD of three; read-out: Cell viability PNT-2
Please give a number only; it is taken to be in %.

CCC(C)C(=O)OC1C=C2C3C(C)C(C)(O)CC(OC(C)=O)C3(C)CCC2(C)C2(C)CC(OC(C)=O)C3C(C)(C)C(O)C(OC(C)=O)CC3(C)C12 (centres unmarked)	59

Moving on to the next compound.
Dear colleague, I am looking for the recorded viability at 24 h, 100 μg/mL of the following compound: CC(=O)OC1CC2(C)C(C(OC(C)=O)CC3(C)C2C(O)C=C2C4C(C)C(C)(O)CC(OC(C)=O)C4(C)CCC23C)C(C)(C)C1O (centres unmarked)
93.6

====

# method_description: Cytotoxicity, LDH assay, HT29 cells
# Type: cell-based, human
# condition_set: human, HT29 colon adenocarcinoma cells, 5 μg/mL, 24 h, mean ± SD of three; read-out: Cell viability HT29
Below: a set of entries, each annotated with reported viability at 24 h, 5 μg/mL.
Answer format: value, then unit.

Reported viability at 24 h, 5 μg/mL, compound CC(=O)OC1CC2(C)C(C(OC(C)=O)CC3(C)C2C(O)C=C2C4C(C)C(C)(O)CC(OC(C)=O)C4(C)CCC23C)C(C)(C)C1O (centres unmarked) : ____
95.8%

Here is the next compound: CCC(C)C(=O)OC1C=C2C3C(C)C(C)(O)CC(OC(C)=O)C3(C)CCC2(C)C2(C)CC(OC(C)=O)C3C(C)(C)C(O)C(OC(C)=O)CC3(C)C12 (centres unmarked)
97%

====

# method_description: Cytotoxicity, LDH assay, HT29 cells
# Format: cell-based, human
# condition_set: human, HT29 colon adenocarcinoma cells, 30 μg/mL, 24 h, mean ± SD of three; read-out: Cell viability HT29
Recorded viability at 24 h, 30 μg/mL for the following compounds
# number only, unit % dropped from output

CCC(C)C(=O)OC1C=C2C3C(C)C(C)(O)CC(OC(C)=O)C3(C)CCC2(C)C2(C)CC(OC(C)=O)C3C(C)(C)C(O)C(OC(C)=O)CC3(C)C12 (centres unmarked)	81.5

Now look at this entry.
Report viability at 24 h, 30 μg/mL for CC(=O)OC1CC2(C)C(C(OC(C)=O)CC3(C)C2C(O)C=C2C4C(C)C(C)(O)CC(OC(C)=O)C4(C)CCC23C)C(C)(C)C1O (centres unmarked) please.
81.7

====

# method_description: Cytotoxicity, LDH assay, HaCaT cells
# Format: cell-based, human
# condition_set: human, HaCaT keratinocytes; 20 μg/mL, 24 h, mean ± SD of three; read-out: Cell viability HaCaT
reported_metric: viability at 24 h, 20 μg/mL (%)
State the answer as a number, implicitly in %.

CC(=O)OC1CC2(C)C(C(OC(C)=O)CC3(C)C2C(O)C=C2C4C(C)C(C)(O)CC(OC(C)=O)C4(C)CCC23C)C(C)(C)C1O (centres unmarked)	90.6

// next entry
Fill blank: measured viability at 24 h, 20 μg/mL of the molecule CCC(C)C(=O)OC1C=C2C3C(C)C(C)(O)CC(OC(C)=O)C3(C)CCC2(C)C2(C)CC(OC(C)=O)C3C(C)(C)C(O)C(OC(C)=O)CC3(C)C12 (centres unmarked) is ____.
88.4

====

# method_description: Cytotoxicity, LDH assay, PC3 cells
# Format: cell-based, human
# condition_set: human, PC3 prostate adenocarcinoma cells, 40 μg/mL, 24 h, mean ± SD of three; read-out: Cell viability PC3
Each entry below lists one item and its recorded viability at 24 h, 40 μg/mL value.
Your answer should be a plain number; it is taken to be in %.

CC(=O)OC1CC2(C)C(C(OC(C)=O)CC3(C)C2C(O)C=C2C4C(C)C(C)(O)CC(OC(C)=O)C4(C)CCC23C)C(C)(C)C1O (centres unmarked) [Compound 2]	70.3

Fill in: viability at 24 h, 40 μg/mL of CCC(C)C(=O)OC1C=C2C3C(C)C(C)(O)CC(OC(C)=O)C3(C)CCC2(C)C2(C)CC(OC(C)=O)C3C(C)(C)C(O)C(OC(C)=O)CC3(C)C12 (centres unmarked) [Compound 1] is ___
62.6

====

# method_description: Cytotoxicity, LDH assay, DU145 cells
# Type: cell-based, human
# condition_set: human, DU145 prostate carcinoma cells, 50 μg/mL, 24 h, mean ± SD of three; read-out: Cell viability DU145
reported_metric: viability at 24 h, 50 μg/mL (%)
Write it as a number; the unit % goes unstated.

CC(=O)OC1CC2(C)C(C(OC(C)=O)CC3(C)C2C(O)C=C2C4C(C)C(C)(O)CC(OC(C)=O)C4(C)CCC23C)C(C)(C)C1O (centres unmarked)	68.6

Here is the next item to consider.
Data request, read-out viability at 24 h, 50 μg/mL, for CCC(C)C(=O)OC1C=C2C3C(C)C(C)(O)CC(OC(C)=O)C3(C)CCC2(C)C2(C)CC(OC(C)=O)C3C(C)(C)C(O)C(OC(C)=O)CC3(C)C12 (centres unmarked)
27.2

====

# method_description: Cytotoxicity, LDH assay, Caco-2 cells
# Format: cell-based, human
# condition_set: human, Caco-2; 50 μg/mL, 24 h, mean ± SD of three; read-out: Cell viability Caco-2
Here, each record is paired with measured viability at 24 h, 50 μg/mL data.

CC(=O)OC1CC2(C)C(C(OC(C)=O)CC3(C)C2C(O)C=C2C4C(C)C(C)(O)CC(OC(C)=O)C4(C)CCC23C)C(C)(C)C1O (centres unmarked)	61.1%

Please look up its viability at 24 h, 50 μg/mL: CCC(C)C(=O)OC1C=C2C3C(C)C(C)(O)CC(OC(C)=O)C3(C)CCC2(C)C2(C)CC(OC(C)=O)C3C(C)(C)C(O)C(OC(C)=O)CC3(C)C12 (centres unmarked)
35.8%

====

viability at 24 h, 30 μg/mL for assorted compounds
# method_description: Cytotoxicity, LDH assay, DU145 cells
# Type: cell-based, human
# condition_set: human, DU145 prostate carcinoma cells, 30 μg/mL, 24 h, mean ± SD of three; read-out: Cell viability DU145

CCC(C)C(=O)OC1C=C2C3C(C)C(C)(O)CC(OC(C)=O)C3(C)CCC2(C)C2(C)CC(OC(C)=O)C3C(C)(C)C(O)C(OC(C)=O)CC3(C)C12 (centres unmarked)	57.2%

I am curious: what viability at 24 h, 30 μg/mL value has been reported for CC(=O)OC1CC2(C)C(C(OC(C)=O)CC3(C)C2C(O)C=C2C4C(C)C(C)(O)CC(OC(C)=O)C4(C)CCC23C)C(C)(C)C1O (centres unmarked) ?
83.2%
